- experiment-notes: recombinant barcode read abundance after kanamycin selection (control-corrected) (log10(CPM+1)); higher = more efficient recombination; sequences stand for … in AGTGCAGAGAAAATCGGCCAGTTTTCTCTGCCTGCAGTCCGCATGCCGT…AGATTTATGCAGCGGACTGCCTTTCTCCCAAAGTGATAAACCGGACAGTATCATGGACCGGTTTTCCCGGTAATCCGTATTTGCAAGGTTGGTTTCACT; site = the 11-nt target
Assignment: determine reported recombinant barcode read abundance (log10) for the given sequences.
One number for each entry.

See these solved cases before continuing.
In [3]: df
Out[3]:
                           sequence_content   value
0  TGGCACCCTTGGGTTCTAACCTGTTGCGG (site TGGCACCCTCC)    2.42
1  GTCCCTCCTTGGGTTCTAACCTGTTGCTT (site GTCCCTCCTAG)   0.201
2  CTCTGTCCTTGGGTTCTAACCTGTTGCTG (site GCTGAGACTAC)  0.0997

Give recombinant barcode read abundance (log10) for each listed item.
1. ATCACACCTTGGGTTCTAACCTGTTGCCT (site ATCACACCTAG)
2. CACTTCCCTTGGGTTCTAACCTGTTGCGA (site AGTGAAGCTGT)

Response:
1: 0.761; 2: 0.222

* * *

- experiment-notes: recombinant UMI read abundance after kanamycin selection (control-corrected) (log10(CPM+1)); higher = more efficient recombination; extreme values may be limits of the assay; sequences stand for … in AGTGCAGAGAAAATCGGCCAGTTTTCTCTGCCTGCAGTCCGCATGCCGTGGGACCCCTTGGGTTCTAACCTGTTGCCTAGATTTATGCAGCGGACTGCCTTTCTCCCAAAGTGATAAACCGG…AGGTTGGTTTCACT; site = the 11-nt donor
Assignment: determine reported recombinant UMI read abundance (log10) for the given sequences.
One number for each entry.

See these solved cases before continuing.
                           sequence_content                         reported_metric  value
0  CAATTCCCATGGACCGGTTTTCCCGGTAATCCGTATTTGCT (site CCATTCCCTAG)  recombinant UMI read abundance (log10)   1.17
1  AGGAAGGCATGGACCGGTTTTCCCGGTAATCCGTATTTGCT (site AGAAAGGCTAG)  recombinant UMI read abundance (log10)   2.69
2  CGGGAGTCATGGACCGGTTTTCCCGGTAATCCGTATTTGCA (site CGGGAGTCTGG)  recombinant UMI read abundance (log10)   1.15
3  AGGACTACATGGACCGGTTTTCCCGGTAATCCGTATTTGGC (site AGGACTACTGG)  recombinant UMI read abundance (log10)      0
4  CTTGAGTCATGGACCGGTTTTCCCGGTAATCCGTATTTGTT (site CTTGAGTCTAA)  recombinant UMI read abundance (log10)   2.46
5  CGATGATCATGGACCGGTTTTCCCGGTAATCCGTATTTGCT (site CGATGATCTAG)  recombinant UMI read abundance (log10)   2.46

Give recombinant UMI read abundance (log10) for each listed item.
1. ATTGATACATGGACCGGTTTTCCCGGTAATCCGTATTTGGT (site ATTGACACTAC)
2. CGTCGAACATGGACCGGTTTTCCCGGTAATCCGTATTTGTT (site CGTCGAACTAA)
3. GCTACCGCATGGACCGGTTTTCCCGGTAATCCGTATTTGCC (site GCTACAGCTGG)

Response:
1: 0.179; 2: 0; 3: 0

Give recombinant UMI read abundance (log10) for each listed item.
1. GTGGCACCATGGACCGGTTTTCCCGGTAATCCGTATTTGCA (site GTGGCACCTTG)
2. GCTAACTCATGGACCGGTTTTCCCGGTAATCCGTATTTGGG (site GCTAACTCTCC)
3. CTAGTATCATGGACCGGTTTTCCCGGTAATCCGTATTTGAC (site CTAGCATCTTT)
4. CCTAAAGCATGGACCGGTTTTCCCGGTAATCCGTATTTGAT (site CCTAACGCTAT)
5. CATAATACATGGACCGGTTTTCCCGGTAATCCGTATTTGGC (site CTTAATACTGC)

Response:
0
0.0314
0.0133
0.035
0

Give recombinant UMI read abundance (log10) for each listed item.
1. CACTTGACATGGACCGGTTTTCCCGGTAATCCGTATTTGGA (site CACTTGGCTTC)
2. CACGTCCCATGGACCGGTTTTCCCGGTAATCCGTATTTGTT (site CACGACCCTAA)
3. CATTAGCCATGGACCGGTTTTCCCGGTAATCCGTATTTGGA (site CATTAGCCTTC)
4. GGAGTGGCATGGACCGGTTTTCCCGGTAATCCGTATTTGGT (site GGAGGGGCTAC)

Response:
1. 0.369
2. 0.22
3. 0.0164
4. 0.461

* * *

- experiment-notes: recombinant barcode read abundance after kanamycin selection (control-corrected) (log10(CPM+1)); higher = more efficient recombination; sequences stand for … in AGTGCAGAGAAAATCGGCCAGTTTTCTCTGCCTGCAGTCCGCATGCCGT…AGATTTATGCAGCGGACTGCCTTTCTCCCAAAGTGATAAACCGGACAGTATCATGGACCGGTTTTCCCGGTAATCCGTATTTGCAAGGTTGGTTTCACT; site = the 11-nt target
reported-metric: recombinant barcode read abundance (log10)

See these solved cases before continuing.
                           sequence_content   value
0  TTCAGCCCTTGGGTTCTAACCTGTTGCCT (site TTCAGCCCTAG)   0.679
1  CGGGCCTCTTGGGTTCTAACCTGTTGCTG (site CGGGCCTCTAA)   0.504
2  CACAAAGCTTGGGTTCTAACCTGTTGCCT (site CACACAGCTAG)   0.143
3  TCACGTGCTTGGGTTCTAACCTGTTGCCT (site TCACATGCTAG)  0.0819
4  TACTCAACTTGGGTTCTAACCTGTTGCCT (site TACTGAACTAG)  0.0105
5  GTTGCGGCTTGGGTTCTAACCTGTTGCCT (site GTTACGGCTAG)    0.44
6  CATAATTCTTGGGTTCTAACCTGTTGCCT (site CATTATTCTAG)  0.0376
7  GCTCAGACTTGGGTTCTAACCTGTTGCCT (site GCTCAGGCTAG)   0.132
8  AAGACTCCTTGGGTTCTAACCTGTTGCCT (site AAGTCTCCTAG)  0.0612

Moving on to the next sequence.
Prompt: Identify measured recombinant barcode read abundance (log10) corresponding to ACTAGTCCTTGGGTTCTAACCTGTTGCCT (site ACTAGTCCTAA)
Response: 0.233

* * *

- experiment-notes: recombinant barcode read abundance after kanamycin selection (control-corrected) (log10(CPM+1)); higher = more efficient recombination; sequences stand for … in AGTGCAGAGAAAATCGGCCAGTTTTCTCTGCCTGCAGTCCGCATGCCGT…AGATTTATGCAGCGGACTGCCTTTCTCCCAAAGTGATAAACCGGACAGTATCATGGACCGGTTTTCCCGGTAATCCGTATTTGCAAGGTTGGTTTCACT; site = the 11-nt target
reported-metric: recombinant barcode read abundance (log10)
One number for each entry.

                           sequence_content   value
0  CTATGACCTTGGGTTCTAACCTGTTGCAT (site CTATGACCTAA)  0.0613
1  GCTCAGACTTGGGTTCTAACCTGTTGCCT (site GCTCAGTCTAG)  0.0442
2  TCCCATCCTTGGGTTCTAACCTGTTGCTT (site TCCCATCCTAA)   0.114
3  CCGCCTGCTTGGGTTCTAACCTGTTGCCT (site CCGCCGGCTAG)    0.24

Give recombinant barcode read abundance (log10) for each listed item.
1. CTCTGCTCTTGGGTTCTAACCTGTTGCTT (site CTCTGCTCTAA)
2. TAATTTGCTTGGGTTCTAACCTGTTGCCT (site TAATTTGCTAG)
3. CAGTCAGCTTGGGTTCTAACCTGTTGCCT (site GTAAGGACTCC)

Response:
1: 0.245; 2: 0.182; 3: 0.0866

Give recombinant barcode read abundance (log10) for each listed item.
1. GCTGAGACTTGGGTTCTAACCTGTTGCGT (site CTCTGTCCTCA)
2. TAAAGAGCTTGGGTTCTAACCTGTTGCGG (site TACAGAGCTCC)

Response:
1. 0.237
2. 0.153

Prompt: Identify measured recombinant barcode read abundance (log10) corresponding to TAGTAACCTTGGGTTCTAACCTGTTGCTT (site TAGTAACCTAA)
Response: 0.683

* * *

- experiment-notes: recombinant UMI read abundance after kanamycin selection (control-corrected) (log10(CPM+1)); higher = more efficient recombination; extreme values may be limits of the assay; sequences stand for … in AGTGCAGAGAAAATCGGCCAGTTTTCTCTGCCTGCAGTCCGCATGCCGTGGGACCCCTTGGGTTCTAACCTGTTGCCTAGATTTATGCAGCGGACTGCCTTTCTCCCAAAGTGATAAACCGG…AGGTTGGTTTCACT; site = the 11-nt donor
Assignment: determine reported recombinant UMI read abundance (log10) for the given sequences.
Answers are plain numbers.

                           sequence_content                         reported_metric  value
0  AAAGCTTCATGGACCGGTTTTCCCGGTAATCCGTATTTGGG (site AAAGCTTCTCC)  recombinant UMI read abundance (log10)  0.447
1  CGGGAACCATGGACCGGTTTTCCCGGTAATCCGTATTTGAT (site CTGGAACCTAT)  recombinant UMI read abundance (log10)      0
2  CTAGGATCATGGACCGGTTTTCCCGGTAATCCGTATTTGGC (site CTAGTATCTGT)  recombinant UMI read abundance (log10)  0.606
3  CGTGGAACATGGACCGGTTTTCCCGGTAATCCGTATTTGTT (site CGTGTAACTAA)  recombinant UMI read abundance (log10)      0
4  ACAGCTTCATGGACCGGTTTTCCCGGTAATCCGTATTTGGC (site ACAGCTTCTGC)  recombinant UMI read abundance (log10)   3.35

Give recombinant UMI read abundance (log10) for each listed item.
1. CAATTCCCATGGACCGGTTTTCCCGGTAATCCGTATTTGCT (site CAATACCCTAG)
2. ATCTATACATGGACCGGTTTTCCCGGTAATCCGTATTTGAC (site AGCTATACTGT)
3. GGTTGGACATGGACCGGTTTTCCCGGTAATCCGTATTTGAC (site GTTTGGACTGT)

Response:
1. 0.712
2. 1.66
3. 0

Give recombinant UMI read abundance (log10) for each listed item.
1. CTCTACACATGGACCGGTTTTCCCGGTAATCCGTATTTGGT (site CTCTACACTAT)
2. CATTCGACATGGACCGGTTTTCCCGGTAATCCGTATTTGGG (site CACTCGACTCC)
3. GGCCGTACATGGACCGGTTTTCCCGGTAATCCGTATTTGCT (site GGCCGTACTAG)
4. GCGAAGCCATGGACCGGTTTTCCCGGTAATCCGTATTTGGG (site GCTAAGCCTCC)
5. TACTGAGCATGGACCGGTTTTCCCGGTAATCCGTATTTGGG (site TACTGAGCTCC)

Response:
1. 0.203
2. 0.0107
3. 1.83
4. 0.0212
5. 0.356

Give recombinant UMI read abundance (log10) for each listed item.
1. CGTAAGACATGGACCGGTTTTCCCGGTAATCCGTATTTGAG (site CGTGAGACTCT)
2. GAATGAGCATGGACCGGTTTTCCCGGTAATCCGTATTTGGG (site AAATGAGCTCC)
3. ATCCAAGCATGGACCGGTTTTCCCGGTAATCCGTATTTGAG (site AGCCAAGCTCT)

Response:
1: 0.0574; 2: 0.0126; 3: 0.194

Give recombinant UMI read abundance (log10) for each listed item.
1. CAATGCCCATGGACCGGTTTTCCCGGTAATCCGTATTTGCT (site CAATTCCCTAG)
2. ATGGAGGCATGGACCGGTTTTCCCGGTAATCCGTATTTGGC (site ATGCAGGCTGC)

Response:
1: 0; 2: 1.03

The reported numbers originate from the supplement of paper PMC11208160.
